Readings of yeast fitness (ln) for the listed variants
B1: tRNA (parent)
chain: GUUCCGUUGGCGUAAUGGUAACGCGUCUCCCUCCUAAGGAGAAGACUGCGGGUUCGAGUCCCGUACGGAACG

# Variants of: B1
# procedure details: yeast fitness, log relative to wild type (ln ratio); higher = fitter; tRNA-Arg(CCU), competitive growth, 37 C, 1 M NaCl
value kind: yeast fitness (ln)

monomer_sequence="AUUCCGUUGGCGUAAUGGUAACGCGUUUCCCUCCUAAGGAGACGACUGCGGGUUCGAGUCCCGUAUGGAGUG [G1A C27U A43C C66U A70G C71U]" value_kind="yeast fitness (ln)" obs_value=-0.32
monomer_sequence="GUUCCAUUGGCGUAAUGGUAACGCGUUUCCCUCCUAAGGAGAAGAUUGCGGGUUCGAGUCCCGUACGGAGCG [G6A C27U C46U A70G]" value_kind="yeast fitness (ln)" obs_value=-0.132
monomer_sequence="GUUCCGUUGGCGUAAUGGUAACGCGUUUCCCUCCUAAGGAGACGACUGCGGGUUCGAGUCCCGUACGGAAUG [C27U A43C C71U]" value_kind="yeast fitness (ln)" obs_value=-0.114
monomer_sequence="GCUCCGUUGGCGUAAUGGUAACGCGUUUCCCUCCUAAGGAGAAGAUUGCGGGUUCGAGUCCCGUAUGGGUCG [U2C C27U C46U C66U A69G A70U]" value_kind="yeast fitness (ln)" obs_value=-0.137
monomer_sequence="GCUCCUUUGGCGUAAUGGUAACGCGUCUCCCUCCUAAGGAGAAGAUUGCGGGUUCGAGUCCCGUAAGGGUCG [U2C G6U C46U C66A A69G A70U]" value_kind="yeast fitness (ln)" obs_value=-0.143
monomer_sequence="AGUCCAUUGGCGUAAUGGUAACGCGUUUCCCUCCUAAGGAGACGAUUGCGGGUUCGAGUCCCGUAAGGAAUG [G1A U2G G6A C27U A43C C46U C66A C71U]" value_kind="yeast fitness (ln)" obs_value=-0.323
monomer_sequence="ACUCCGUUGGCGUAAUGGUAACGCGUCUCCCUCCUAAGGAGACGAUUGCGGGUUCGAGUCCCGUAAGGAUUG [G1A U2C A43C C46U C66A A70U C71U]" value_kind="yeast fitness (ln)" obs_value=-0.134
monomer_sequence="AUUCCUUUGGCGUAAUGGUAACGCGUCUCCCUCCUAAGGAGACGAUUGCGGGUUCGAGUCCCGUACGGAGUG [G1A G6U A43C C46U A70G C71U]" value_kind="yeast fitness (ln)" obs_value=-0.301
monomer_sequence="AUUCCGUUGGCGUAAUGGUAACGCGUUUCCCUCCUAAGGAGACGACUGCGGGUUCGAGUCCCGUAUGGAACG [G1A C27U A43C C66U]" value_kind="yeast fitness (ln)" obs_value=-0.242
monomer_sequence="GUUCCGUUGGCGUAAUGGUAACGCGUCUCCCUCCUAAGGAGAAGACUGCGGGUUCGAGUCCCGUAUGGGUUG [C66U A69G A70U C71U]" value_kind="yeast fitness (ln)" obs_value=-0.339
monomer_sequence="GUUCCUUUGGCGUAAUGGUAACGCGUCUCCCUCCUAAGGAGAAGACUGCGGGUUCGAGUCCCGUACGGGGUG [G6U A69G A70G C71U]" value_kind="yeast fitness (ln)" obs_value=-0.282
monomer_sequence="GUUCCUUUGGCGUAAUGGUAACGCGUUUCCCUCCUAAGGAGAAGAUUGCGGGUUCGAGUCCCGUAAGGAGCG [G6U C27U C46U C66A A70G]" value_kind="yeast fitness (ln)" obs_value=-0.04
monomer_sequence="ACUCCUUUGGCGUAAUGGUAACGCGUCUCCCUCCUAAGGAGAAGAUUGCGGGUUCGAGUCCCGUAAGGGGCG [G1A U2C G6U C46U C66A A69G A70G]" value_kind="yeast fitness (ln)" obs_value=-0.139
monomer_sequence="AGUCCGUUGGCGUAAUGGUAACGCGUCUCCCUCCUAAGGAGACGAUUGCGGGUUCGAGUCCCGUACGGAUCG [G1A U2G A43C C46U A70U]" value_kind="yeast fitness (ln)" obs_value=-0.163
monomer_sequence="GGUCCUUUGGCGUAAUGGUAACGCGUCUCCCUCCUAAGGAGAAGACUGCGGGUUCGAGUCCCGUACGGGAUG [U2G G6U A69G C71U]" value_kind="yeast fitness (ln)" obs_value=-0.17
monomer_sequence="ACUCCAUUGGCGUAAUGGUAACGCGUCUCCCUCCUAAGGAGACGAUUGCGGGUUCGAGUCCCGUAUGGGUCG [G1A U2C G6A A43C C46U C66U A69G A70U]" value_kind="yeast fitness (ln)" obs_value=-0.0607
monomer_sequence="AGUCCGUUGGCGUAAUGGUAACGCGUCUCCCUCCUAAGGAGACGACUGCGGGUUCGAGUCCCGUACGGAUCG [G1A U2G A43C A70U]" value_kind="yeast fitness (ln)" obs_value=-0.33
monomer_sequence="GGUCCGUUGGCGUAAUGGUAACGCGUCUCCCUCCUAAGGAGACGACUGCGGGUUCGAGUCCCGUACGGGGCG [U2G A43C A69G A70G]" value_kind="yeast fitness (ln)" obs_value=-0.0982
monomer_sequence="AGUCCGUUGGCGUAAUGGUAACGCGUCUCCCUCCUAAGGAGAAGACUGCGGGUUCGAGUCCCGUAUGGAGCG [G1A U2G C66U A70G]" value_kind="yeast fitness (ln)" obs_value=-0.161
monomer_sequence="GUUCCAUUGGCGUAAUGGUAACGCGUCUCCCUCCUAAGGAGAAGACUGCGGGUUCGAGUCCCGUAAGGGGUG [G6A C66A A69G A70G C71U]" value_kind="yeast fitness (ln)" obs_value=-0.163
monomer_sequence="GGUCCGUUGGCGUAAUGGUAACGCGUCUCCCUCCUAAGGAGAAGACUGCGGGUUCGAGUCCCGUACGGAACG [U2G]" value_kind="yeast fitness (ln)" obs_value=-0.0125
monomer_sequence="GUUCCUUUGGCGUAAUGGUAACGCGUCUCCCUCCUAAGGAGACGAUUGCGGGUUCGAGUCCCGUAUGGAACG [G6U A43C C46U C66U]" value_kind="yeast fitness (ln)" obs_value=-0.258

Values compiled from the RNAGym collection of RNA variant scans (doi:10.1038/s41586-018-0170-7).
